Test system: bradykinin response of isolated guinea pig ileum
Assay: Anti-bradykinin activity on isolated guinea pig ileum
Conditions: isolated guinea pig ileum; pD2 of bradykinin is 7.4; higher numbers indicate higher potency
Below, each entry is listed with its recorded GPI: pA2 for bradykinin antagonist activity on isolated guinea pig ileum.
// return just the number, without any unit appended

compound="CN1CCN(NC(=O)C(Cc2ccc3ccccc3c2)NC(=O)c2cccc(NC(=O)C=Cc3c(F)c(F)c(F)c(F)c3F)c2)CC1 (stereo not drawn) [M492]" test_target="bradykinin response of isolated guinea pig ileum" value=5.1
compound="O=C(O)Cc1ccc(NC(=O)C(Cc2ccc3ccccc3c2)NC(=NC2CCCCC2)NC2CCCCC2)cc1 (stereo not drawn) [M36]" test_target="bradykinin response of isolated guinea pig ileum" value=5.0

# input for lookup
[Q] Give GPI: pA2 for bradykinin antagonist activity on isolated guinea pig ileum for the following compound: O=C(O)CC(NC(=O)C(Cc1ccc2ccccc2c1)NC(=NC1CCCCC1)NC1CCCCC1)C(=O)NC1CN2CCC1CC2 (single isomer, unassigned) [M336-2]
[A] 5.4
